- experiment: Ocular tissue concentrations (aqueous humor, vitreous humor, iris, retina, choroid, cornea) after topical ocular, subcutaneous and intravitreal administration
- Assay type: in vivo, New Zealand White rabbits
- testSettings: New Zealand White, rabbit, cornea, subcutaneous, 5 mg/kg/dose, Cornea, 0.5 hr; free acid, subcutaneous 5 mg/kg/dose, Group 3; read-out: Cornea Average
recordedMetric: concentration at 0.5 h (ng/g)
Give the value, in units of ng/g, as a plain number.

Input line: Which concentration at 0.5 h reading was recorded for the compound COC(=O)N[C@@H](Cc1ccccc1)C(=O)N[C@@H](Cc1ccc(NS(=O)(=O)O)cc1)c1csc(-c2cccs2)n1 ?
Output line: 7.96
